The reported numbers originate from patent US4983328A.

Assay: chemical stability: retention (%) after heating at 60° C. for 4 hours, by HPLC
Format: physicochemical
Conditions: pH 3, pH 3
Metric: remaining at 4 h (%)
Response body: numeric value in %, unit text excluded.

Some molecules with recorded remaining at 4 h:
query: Give the reported remaining at 4 h for this molecule. COC(NC(=O)CCCCCCNC(=N)N)C(=O)NCCCCNCCCN (racemic) [Compound 9]
result: 89.3

query: Give the reported remaining at 4 h for this molecule. N=C(N)NCCCCCCC(=O)NC(OCCO)C(=O)NCCCCNCCCN (centres unmarked) [Compound 14]
result: 90.6

query: Give the reported remaining at 4 h for this molecule. N=C(N)NCCCCCCC(=O)NC(OCc1ccccc1)C(=O)NCCCCNCCCN (centres unmarked) [Compound 15]
result: 91.4

query: Give the reported remaining at 4 h for this molecule. CCCCOC(NC(=O)CCCCCCNC(=N)N)C(=O)NCCCCNCCCN (centres unmarked) [Compound 13]
result: 90.1

Please look at the following molecule next.
query: Give the reported remaining at 4 h for this molecule. N=C(N)NCCCC[C@H](O)CC(=O)NC(O)C(=O)NCCCCNCCCN (single isomer, unassigned; (-)) [(-)-spergualin, reference compound]
result: 88

----------
Listed below: inhibition at 20 µg/mL values for each entry.
System: mouse leukemia L-1210 cells
Experiment: growth inhibitory activity to cancer cells in vitro (L-1210, 48 hours)
Format: cell-based
Conditions: L1210, 20 mcg/ml, read-out: Growth inhibition (%), (1-T/C) × 100
Response body: numeric value in %, unit text excluded.

Some compounds with recorded inhibition at 20 µg/mL:
query: Give the reported inhibition at 20 µg/mL for this compound. N=C(N)NCCCCCC(=O)NC(O)C(=O)NCCCCNCCCN (stereo not drawn)
result: 86.7

query: Give the reported inhibition at 20 µg/mL for this compound. N=C(N)NCCCC(=O)NC(O)C(=O)NCCCCNCCCN (stereo not drawn)
result: 100

Please look at the following compound next.
query: Give the reported inhibition at 20 µg/mL for this compound. CCOC(NC(=O)C[C@@H](O)CCCCNC(=N)N)C(=O)NCCCCNCCCN (stereo partly drawn)
result: 96.1

----------
Tested on: mouse leukemia L-1210 cells
Assay: growth inhibitory activity to cancer cells in vitro (L-1210, 48 hours)
Type: cell-based
Settings: L1210, 40 mcg/ml, read-out: Growth inhibition (%), (1-T/C) × 100
Listed below: inhibition at 40 µg/mL values for each entry.
Response body: numeric value in %, unit text excluded.

query: Give the reported inhibition at 40 µg/mL for this molecule. N=C(N)NCCCCCCC(=O)NC(OCCO)C(=O)NCCCCNCCCN (stereo not drawn)
result: 42.7

query: Give the reported inhibition at 40 µg/mL for this molecule. N=C(N)NCCCCCCC(=O)NC(O)C(=O)NCCCCNCCCN (stereo not drawn)
result: 78.7

query: Give the reported inhibition at 40 µg/mL for this molecule. COC(NC(=O)CCCCCCCCNC(=N)N)C(=O)NCCCCNCCCN (stereo not drawn)
result: 71.8

query: Give the reported inhibition at 40 µg/mL for this molecule. CCOC(NC(=O)C[C@@H](O)CCCCNC(=N)N)C(=O)NCCCCNCCCN (stereo partly drawn)
result: 96.4

query: Give the reported inhibition at 40 µg/mL for this molecule. N=C(N)NCCCCCCC=CC(=O)NC(O)C(=O)NCCCCNCCCN (stereo not drawn)
result: 32.3

Further cases:
query: Give the reported inhibition at 40 µg/mL for this molecule. COC(NC(=O)CCCCCCNC(=N)N)C(=O)NCCCCNCCCN (racemic)
result: 78.1

query: Give the reported inhibition at 40 µg/mL for this molecule. N=C(N)NCCCC[C@H](O)CC(=O)NC(OCCO)C(=O)NCCCCNCCCN (stereo partly drawn)
result: 74.7

query: Give the reported inhibition at 40 µg/mL for this molecule. CCOC(NC(=O)CCCCCCNC(=N)N)C(=O)NCCCCNCCCN (stereo not drawn)
result: 58.6

query: Give the reported inhibition at 40 µg/mL for this molecule. COC(NC(=O)C=CCCCCNC(=N)N)C(=O)NCCCCNCCCN (stereo not drawn)
result: 85.4

query: Give the reported inhibition at 40 µg/mL for this molecule. N=C(N)NCCCCCCC(=O)NC(OCc1ccccc1)C(=O)NCCCCNCCCN (stereo not drawn)
result: 100

query: Give the reported inhibition at 40 µg/mL for this molecule. N=C(N)NCCCCCC=CC(=O)NC(O)C(=O)NCCCCNCCCN (stereo not drawn)
result: 52.5

query: Give the reported inhibition at 40 µg/mL for this molecule. N=C(N)NCCCCCCC(O)CC(=O)NC(O)C(=O)NCCCCNCCCN (stereo not drawn)
result: 84

query: Give the reported inhibition at 40 µg/mL for this molecule. COC(NC(=O)C[C@@H](O)CCCCNC(=N)N)C(=O)NCCCCNCCCN (stereo partly drawn)
result: 98.3

query: Give the reported inhibition at 40 µg/mL for this molecule. COC(NC(=O)CCCCCNC(=N)N)C(=O)NCCCCNCCCN (stereo not drawn)
result: 53.5

query: Give the reported inhibition at 40 µg/mL for this molecule. N=C(N)NCCCCC(=O)NC(O)C(=O)NCCCCNCCCN (stereo not drawn)
result: 79.6

query: Give the reported inhibition at 40 µg/mL for this molecule. CCCCOC(NC(=O)C[C@@H](O)CCCCNC(=N)N)C(=O)NCCCCNCCCN (stereo partly drawn)
result: 97.2
